- Tested on: SW-620 colon
- method_description: NCI tumour cell line growth inhibition, 48 h
attribute_measured: TGI (µM)
Provide the reading as a plain figure in µM.

The cases that follow already have their TGI on record.
{"columns": ["compound", "TGI, µM"],
 "data": [
  ["O=C(CS(=O)c1nc2ccccc2nc1-c1ccccc1)Nc1ccc(Cl)cc1 (stereo unspecified)", 88.2],
  ["O=[N+]([O-])c1cc(C(F)(F)F)cc2n[se]nc12", 3.11],
  ["O=C(N/N=C/c1cc(Cl)cc(Cl)c1[O-])c1ccccc1O.O=C(N/N=C/c1cc(Cl)cc(Cl)c1[O-])c1ccccc1O.[Fe+2]", 48.2]
]}

Kindly indicate its recorded TGI. Item: CCOP(=O)(OCC)C(NC(c1ccccc1)c1ccccc1)c1ccsc1 (stereo unspecified)
61.5

Kindly indicate its recorded TGI. Item: "Cn1c2ccccc2c2c(=O)n(CCCC(=O)NCCc3cnc[nH]3)c3c(-c4ccccc4)nnn3c21"
30.2

Kindly indicate its recorded TGI. Item: "COc1cc(C(=O)c2cnc(-c3ccc4cc[nH]c4c3)[nH]2)cc(OC)c1OC"
21.7

Kindly indicate its recorded TGI. Item: "CN(CCCNC(=O)c1cn(C)c2c1ccc1ccccc12)CCCNC(=O)c1cn(C)c2c1ccc1ccccc12"
6.41

---

- Tested on: CAKI-1 renal
- method_description: NCI tumour cell line growth inhibition, 48 h
attribute_measured: TGI

The cases that follow already have their TGI on record.
{"columns": ["chem_smiles", "attribute_measured", "reported_result"],
 "data": [
  ["COc1cc2cnc3c4cc(O)ccc4ccc3c2cc1OC", "TGI", "> 100 µM"],
  ["CC1=C(C(=O)NNC(=O)c2ccccc2O)CC(C(=O)NNC(=O)c2ccccc2O)=C(C)N1", "TGI", "> 100 µM"],
  ["C/C1=C\\CC[C@@]2(C)O[C@@H]2C[C@@H]2[C@H](C/C(C)=C/CC1)OC(=O)[C@]21CO1", "TGI", "> 100 µM"],
  ["O=C(Nc1ccccc1)c1cc2cc(CCl)ccc2oc1=O", "TGI", "> 100 µM"]
]}

Field: next compound
Kindly indicate its recorded TGI. Item: "Cc1cc(S(=O)(=O)Nc2nnc3c(Cl)cc(C(F)(F)F)cn23)c(S)cc1Cl"
> 100 µM

---

- Tested on: NCI-H23 lung
- method_description: NCI tumour cell line growth inhibition, 48 h
attribute_measured: TGI

The cases that follow already have their TGI on record.
{"columns": ["molecule", "target_or_system", "TGI"],
 "data": [
  ["N#CCCN(c1ccc(C=Nc2ccc(C(=O)O)cc2)cc1)S(=O)(=O)c1ccccc1", "NCI-H23 lung", "> 100 µM"],
  ["CCCCCCCCCCCCCC(=O)NO", "NCI-H23 lung", "31.1 µM"]
]}

Field: next molecule
Report TGI on NCI-H23 lung for this entry: CC1OC(OC2C(O)C(OCCc3ccc(O)c(O)c3)OC(CO)C2OC(=O)/C=C/c2ccc(O)c(O)c2)C(O)C(O)C1O (stereo not drawn)
> 100 µM

---

- System: CAKI-1 renal
- method_description: NCI tumour cell line growth inhibition, 48 h
attribute_measured: TGI

{"columns": ["molecule", "TGI"],
 "data": [
  ["CCCCCCC(O)C(=O)OC1C2C(CC1(C)C)C(O)C13OC1C(O)C1(CO1)[C@@]23C (some centres undefined)", "> 100 µM"]
]}

Kindly indicate its recorded TGI. Item: "N#CCCN(c1ccc(C=Nc2ccc(C(=O)O)cc2)cc1)S(=O)(=O)c1ccccc1"
> 100 µM

Kindly indicate its recorded TGI. Item: NCCCC(N)(C(=O)O)C(F)F (centres undefined)
> 5000 µM

Kindly indicate its recorded TGI. Item: CC1OC(OC2C(O)C(OCCc3ccc(O)c(O)c3)OC(CO)C2OC(=O)/C=C/c2ccc(O)c(O)c2)C(O)C(O)C1O (centres undefined)
> 100 µM
